# credit: PubChem BioAssay (EPA / NIEHS)

Assay: CCTE_Mundy_HCI_iCellGluta_NOG_NeuriteCount: CCTE's Neurite Outgrowth Assay in iCellGluta cells for Neurite Count, Mundy Lab (AID 2284342);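 also: chemical exposure about 48 hours starting 2 hours after plating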
Records with an inconclusive call do not appear. The source made the active and inactive calls. The calls were made as follows: active = hit-call score of the fitted dose curve at least 0.9, where 1 is the maximum; inconclusive = response in the unintended direction; inactive = score below 0.9.
Valid outcomes are listed here; reply with one: label 1 for active, label 0 for inactive

For orientation, consider the following solved cases.
[
  {
    "Compound": "CCOP(=O)(OCC)SCSC(C)(C)C",
    "Assigned class": "label 1"
  },
  {
    "Compound": "C#CCN(C)[C@H](C)Cc1ccccc1",
    "Assigned class": "label 0"
  },
  {
    "Compound": "CC1(C)C(C=C(Cl)c2ccc(Cl)cc2)C1C(=O)OC(C#N)c1ccc(F)c(Oc2ccccc2)c1 (stereo not given)",
    "Assigned class": "label 1"
  },
  {
    "Compound": "CC1(C)C(C=C(Cl)Cl)C1C(=O)O[C@H](C#N)c1cccc(Oc2ccccc2)c1 (stereo not given in full)",
    "Assigned class": "label 0"
  }
]

API: the following record is the query input.
Q) Call for entry "COP(=O)(OC)SCN1C(=O)c2ccccc2C1=O" :
A) label 0

---

Biological target: Norway rat Vesicular Monoamine Transporter (VMAT2), neurotransmitter transporter, Slc18a2 (gene 25549) (UniProt Q01827)
Sequence (Q01827 whole entry, looked up): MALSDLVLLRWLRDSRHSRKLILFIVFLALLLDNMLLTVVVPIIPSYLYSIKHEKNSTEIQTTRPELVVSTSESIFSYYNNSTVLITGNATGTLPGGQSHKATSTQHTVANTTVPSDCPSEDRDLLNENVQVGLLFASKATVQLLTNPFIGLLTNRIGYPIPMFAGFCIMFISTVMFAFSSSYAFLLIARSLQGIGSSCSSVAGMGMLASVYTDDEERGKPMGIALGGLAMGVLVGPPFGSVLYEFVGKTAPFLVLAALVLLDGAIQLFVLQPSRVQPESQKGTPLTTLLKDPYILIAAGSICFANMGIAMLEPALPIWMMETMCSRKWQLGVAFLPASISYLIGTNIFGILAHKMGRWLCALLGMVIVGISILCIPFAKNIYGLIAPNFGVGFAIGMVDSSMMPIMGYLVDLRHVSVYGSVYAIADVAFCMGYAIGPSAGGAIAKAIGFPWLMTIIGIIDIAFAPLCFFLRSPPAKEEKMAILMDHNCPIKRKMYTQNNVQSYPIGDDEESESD
Experiment: NVS_TR_rVMAT2: NovaScreen (NVS) Transporter Assay for Norway rat Vesicular Monoamine Transporter (VMAT2), neurotransmitter transporter (AID 2283376);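 also: actives lower the bound radioligand signal below the DMSO level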
Experimental: NVS_TR_rVMAT2 is a biochemical, single-readout assay that uses extracted gene-proteins from Rat forebrain in a tissue-based cell-free assay. Measurements were taken 1 hour after chemical dosing in a 96-well plate.NVS_TR_rVMAT2 is one of one assay component(s) measured or calculated from the NVS_TR_rVMAT2 assay. […] This assay endpoint, NVS_TR_rVMAT2, was analyzed in the positive analysis fitting direction relative to DMSO as the negative control and baseline of activity. […]
Records with an inconclusive call do not appear. Active and inactive are the calls of the source. How the source made its calls: active means hit-call score of the fitted dose curve at least 0.9, where 1 is the maximum; inconclusive means response in the unintended direction; inactive means score below 0.9.
Valid outcomes are listed here; reply with one: active, inactive

[
  {
    "Compound": "Nc1ccc2c(c1)C(=O)c1ccccc1C2=O",
    "Assigned class": "inactive"
  },
  {
    "Compound": "CCCC(O)C(O)CO (centres undefined)",
    "Assigned class": "inactive"
  },
  {
    "Compound": "CC[N+](CC)(CC(=O)Nc1c(C)cccc1C)Cc1ccccc1",
    "Assigned class": "inactive"
  },
  {
    "Compound": "O=C=NC1CCC(CC2CCC(N=C=O)CC2)CC1 (centres undefined)",
    "Assigned class": "active"
  }
]

Q) Call for entry "Cc1oc2c(NC(=O)c3c(Cl)cccc3Cl)cccc2c1C(C)(C)O" :
A) active

Q) Call for entry "O=C(NO)C1(NS(=O)(=O)c2ccc(Oc3ccc(F)cc3)cc2)CCOCC1" :
A) inactive

Q) Call for entry "Oc1ccc2c(c1)-c1ccccc1C2" :
A) inactive

---

Assay: CCTE_Shafer_MEA_dev_LDH: CCTE's Lactate Dehydrogenase Assay for Cytotoxicity in the Neural Network Formation Assay, Shafer Lab (AID 2284068);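 also: exposure for twelve days from plating with re-dosing on DIV 5 and 9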
Results filed as inconclusive are left out. Activity calls are given as the source filed them. The calls were made as follows: active = hit-call score of the fitted dose curve at least 0.9, where 1 is the maximum; inconclusive = response in the unintended direction; inactive = score below 0.9.
Valid outcomes are listed here; reply with one: active, inactive

For orientation, consider the following solved cases.
[
  {
    "Molecule": "C[n+]1ccc(-c2cc[n+](C)cc2)cc1",
    "Assigned class": "active"
  },
  {
    "Molecule": "CCOP(=O)(Oc1cnc(C(C)(C)C)nc1)OC(C)C (stereo not given)",
    "Assigned class": "active"
  },
  {
    "Molecule": "CCOP(=O)(O)OCC (tested in a mixture with another compound)",
    "Assigned class": "inactive"
  },
  {
    "Molecule": "CC(=O)[O-].CC(=O)[O-].O.O.O.[Pb+2]",
    "Assigned class": "active"
  },
  {
    "Molecule": "CCOP(=O)(OCC)SCSC(C)(C)C",
    "Assigned class": "active"
  },
  {
    "Molecule": "CCOP(=O)(OCC)OC(Cl)C(Cl)(Cl)Cl (stereo not given)",
    "Assigned class": "active"
  }
]

Q) Call for entry CNC(=N[N+](=O)[O-])NCC1CCOC1 (stereo not given) :
A) inactive

Q) Call for entry "CC1CCCC1.[C-]#[O+].[C-]#[O+].[C-]#[O+].[Mn]" :
A) inactive

Q) Call for entry "CN1C(=O)CN=C(c2ccccc2)c2cc(Cl)ccc21" :
A) inactive

Q) Call for entry "CCC1(c2ccccc2)C(=O)NC(=O)NC1=O" :
A) inactive

---

Read-out: Interferon-gamma inducible Protein 10 (IP10), CXCL10 (gene 3627)
Assay: BSK_hDFCGF_IP10: BioMAP Diversity Plus: hDFCGF Assay for Interferon-gamma inducible Protein 10 (IP10) Biomarker Activity (AID 2283053)
Settings: primary human foreskin fibroblasts; actives raise or lower the signal
Procedure: BSK_hDFCGF is a cell-based, multiplexed-readout assay that uses foreskin fibroblast, a human skin primary cell, with measurements taken at 24 hours after chemical dosing in a 96-well plate.BSK_hDFCGF_IP10 is an assay component measured in the BSK_hDFCGF assay. It measures IP-10 antibody related to regulation of gene expression using ELISA technology.Data from the assay component BSK_hDFCGF_IP10 was analyzed into 1 assay endpoint. […]
Calls of active or inactive are those of the source. Rule for the calls: active = hit-call score of the fitted dose curve at least 0.9, where 1 is the maximum; inactive = score below 0.9.
Endpoint: AC50

Observe how each entry below is paired with its result.
[
  {
    "Molecule": "Cc1ccc(OP(=O)(Oc2ccc(C)cc2)Oc2ccc(C)cc2)cc1 (tested in a mixture with another compound)",
    "Reported measurement": "inactive"
  },
  {
    "Molecule": "CC(C)(C)C(O)C(Oc1ccc(-c2ccccc2)cc1)n1cncn1 (configuration not stated)",
    "Reported measurement": "inactive"
  },
  {
    "Molecule": "O=C(CCl)c1ccccc1",
    "Reported measurement": "4.64 µM (active)"
  },
  {
    "Molecule": "O=[N+]([O-])C=Cc1ccccc1",
    "Reported measurement": "2.63 µM (active)"
  }
]

Per the records, this molecule ( "CC(C)CCCCCCCOC(=O)c1ccccc1C(=O)OCCCCCCCC(C)C" ) has AC50 equal to inactive

Per the records, this molecule ( "O=[N+]([O-])O" ) has AC50 equal to inactive

Per the records, this molecule ( "Clc1ccc(-c2ccccc2)cc1" ) has AC50 equal to inactive

---

Target: Nuclear receptor subfamily 4 group A member 2 (Homo sapiens)
Assay: ATG_NURR1_TRANS: Attagene TRANS-FACTORIAL HepG2 Assay for human Nuclear Receptor Related Protein 1 (NURR1) (AID 2282985)
Details: HepG2 Attagene TRANS reporter, mRNA readout
Results filed as inconclusive are left out. The source made the active and inactive calls. How the source made its calls: active means hit-call score of the fitted dose curve at least 0.9, where 1 is the maximum; inconclusive means response in the unintended direction; inactive means score below 0.9.
Valid outcomes are listed here; reply with one: active, inactive

For orientation, consider the following solved cases.
[
  {
    "Compound": "c1ccc(Nc2ccc3ccccc3c2)cc1",
    "System": "Nuclear receptor subfamily 4 group A member 2 (Homo sapiens)",
    "Assigned class": "inactive"
  },
  {
    "Compound": "CC(=O)/C=C/c1ccccc1",
    "System": "Nuclear receptor subfamily 4 group A member 2 (Homo sapiens)",
    "Assigned class": "inactive"
  },
  {
    "Compound": "O=C1C=CC(=O)C=C1",
    "System": "Nuclear receptor subfamily 4 group A member 2 (Homo sapiens)",
    "Assigned class": "inactive"
  },
  {
    "Compound": "O=S(=O)(O)OOS(=O)(=O)O",
    "System": "Nuclear receptor subfamily 4 group A member 2 (Homo sapiens)",
    "Assigned class": "inactive"
  }
]

API: the following record is the query input.
Q) Call for entry "O=C1C(Cl)=C(Cl)C(=O)C(Cl)=C1Cl" :
A) inactive

---

Test: ATG_NRF2_ARE_CIS: Attagene CIS-FACTORIAL HepG2 Assay for human Nuclear Factor Erythroid 2 Related Factor 2 (NFR2) response to Antioxidant Response Elements (ARE) (AID 2282992);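 as to AC50: reporter mRNA level measured by RT-PCR and capillary electrophoresis fluorescence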
Details: HepG2 Attagene ARE/NRF2 reporter, transcription factor activity; actives raise or lower the signal
Activity calls are given as the source filed them. Rule for the calls: active = hit-call score of the fitted dose curve at least 0.9, where 1 is the maximum; inactive = score below 0.9.
Endpoint: AC50

Observe how each entry below is paired with its result.
[
  {
    "Molecule": "CC(O)CN(CC(C)O)CC(C)O (centres undefined)",
    "AC50": "inactive"
  },
  {
    "Molecule": "CC(C)(Cl)Cl",
    "AC50": "inactive"
  },
  {
    "Molecule": "O=C(O)CCl",
    "AC50": "inactive"
  },
  {
    "Molecule": "Nc1ccc(-c2ccc(N)c(N)c2)cc1N",
    "AC50": "14 µM (active)"
  },
  {
    "Molecule": "CCCOC(=O)c1ccccc1C(=O)OCCC",
    "AC50": "inactive"
  }
]

Per the records, this molecule ( CC1CCC(=O)O1 (centres undefined) ) has AC50 equal to inactive

Per the records, this molecule ( "Cc1ccc(C)c2ccccc12" ) has AC50 equal to inactive

Per the records, this molecule ( "O=C1C=CC(=O)C=C1" ) has AC50 equal to 57.4 µM (active)

Per the records, this molecule ( C=CC(=O)OCC(CC)CCCC (centres undefined) ) has AC50 equal to 100 µM (active)
